TEST_DETAILS: amyloid nucleation score (Sup35N fusion, yeast selection) (log enrichment); library NNK3; higher = more nucleation; inactive = no reads after selection;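 note: zero at mode of non-aggregating sequences after 7 days selection at 30°C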
OBSERVABLE: amyloid nucleation score

Recorded amyloid nucleation score, per entry:
INSERT INTO results (substance, result) VALUES
  ('MNEKENMMNTQWIVCNTCAK', 'inactive'),
  ('TMGVSLHHIKGPFWSVIYCI', 0.481),
  ('KWSKILAPFILFLKLKSNCS', 'inactive'),
  ('FDRAFYNHWFSCGFPEGWHT', 0.501),
  ('GIWSASRLKGNSLYCLLKNV', 'inactive'),
  ('IYYHIETSSAVASWYWRCAT', 'inactive'),
  ('MIYYMLWTYWALPKPWNEYI', 0.971),
  ('STGYYVMDVYLTVAYYVDSN', 'inactive'),
  ('FYLCKRMNGSWNTLISV', 'inactive'),
  ('RTDFHPLYLILWNQRK', 1.9);

Entry VHLNPEN , amyloid nucleation score reported as inactive

---

TEST_DETAILS: amyloid nucleation score (Sup35N fusion, yeast selection) (log enrichment); library NNK2; higher = more nucleation; inactive = no reads after selection
Reported amyloid nucleation score by item:
API note: the answer field is a bare number with no unit suffix.

Recorded amyloid nucleation score, per entry:
INSERT INTO measurements (substance, observable, recorded_number) VALUES
  ('AVIDIIKRTSCTCDESCCIL', 'amyloid nucleation score', 0.503),
  ('HPTLEPGKHYLRVSKSNTSR', 'amyloid nucleation score', 0.404);

Entry FPIVFTTKCDIFLSYSLLPS , amyloid nucleation score reported as 1.7

Entry ISFWGFYRFRYDMCRRVSDR , amyloid nucleation score reported as -1.34

Entry LVRTLAYCASKNNFVRL , amyloid nucleation score reported as -0.038

Entry KAKWFNFLFYNFLQYACLSQ , amyloid nucleation score reported as 1.37

Entry GGTNYANLMLALWFVVMIST , amyloid nucleation score reported as -0.295

---

TEST_DETAILS: amyloid nucleation score (Sup35N fusion, yeast selection) (log enrichment); library NNK2; higher = more nucleation; inactive = no reads after selection
OBSERVABLE: amyloid nucleation score

INSERT INTO measurements (polymer_sequence, observable, result) VALUES
  ('YSMSLASSRCR', 'amyloid nucleation score', 'inactive'),
  ('YKLGTRMSECLRNNVLDSSS', 'amyloid nucleation score', 'inactive'),
  ('YFVCVASDGNMGIRYATR', 'amyloid nucleation score', 'inactive');

---

TEST_DETAILS: amyloid nucleation score (Sup35N fusion, yeast selection) (log enrichment); library NNK2; higher = more nucleation; inactive = no reads after selection
OBSERVABLE: amyloid nucleation score

INSERT INTO assay_data (polymer_sequence, result) VALUES
  ('ILIIRLKFLVIVAITSTGSD', 'inactive'),
  ('LFFYTYWC', 'inactive'),
  ('LGWINKWKRLSNIPIAKWHC', 'inactive');

---

TEST_DETAILS: amyloid nucleation score (Sup35N fusion, yeast selection) (log enrichment); library NNK2; higher = more nucleation; inactive = no reads after selection
Reported amyloid nucleation score by item:
API note: the answer field is a bare number with no unit suffix.

INSERT INTO results (substance, recorded_number) VALUES
  ('NRHRWLYLRMRLYRYLEGVR', 1.18),
  ('FFGALNWGLKQE', 0.646),
  ('FAHERHTIYRQVSIMMWRSM', 0.426),
  ('VIKFDQISCNSFPNSLL', -0.479),
  ('RRSDKLAVLWYSDKRMARWS', -0.582),
  ('FNATIVDRDLRSRGQNRSLQ', 0.362),
  ('GYLSGYLRGSNILGHERYRY', -0.85),
  ('NDSMDHRQSYWGLNPFVYIV', 0.158);

Okay, next one:
Entry RHCDLQSRLPSTWYLVRYPC , amyloid nucleation score reported as 0.885
